Assay: Ratio of drug uptake in brain to plasma in Sprague-Dawley rat at 10 mg/kg, po
Format: ADME, organism-based
Parameters: dose 10 mg/kg, route oral
Settings: read-out: BPR
parameter_measured: Kp

{"compound": "Cc1ccc(C2CCN(Cc3cc(C(=O)O)c(=O)n4ccccc34)CC2)cc1", "quantitative_result": 6}

A = O=C(O)c1cc(CN2CCc3cc(Cl)ccc3C2)c2ccccn2c1=O
B = O=C(O)c1cc(CN2CCc3ccccc3C2c2ccncc2)c2ccccn2c1=O (stereo not drawn)
IN: Pick one: A or B . Which one has the lower reported Kp? Pick one; state its label.
OUT: B
(B: 0.14, A: 0.86)

----------
Target: Muscarinic acetylcholine receptor M1 (Homo sapiens) (UniProt P11229)
Sequence (whole entry): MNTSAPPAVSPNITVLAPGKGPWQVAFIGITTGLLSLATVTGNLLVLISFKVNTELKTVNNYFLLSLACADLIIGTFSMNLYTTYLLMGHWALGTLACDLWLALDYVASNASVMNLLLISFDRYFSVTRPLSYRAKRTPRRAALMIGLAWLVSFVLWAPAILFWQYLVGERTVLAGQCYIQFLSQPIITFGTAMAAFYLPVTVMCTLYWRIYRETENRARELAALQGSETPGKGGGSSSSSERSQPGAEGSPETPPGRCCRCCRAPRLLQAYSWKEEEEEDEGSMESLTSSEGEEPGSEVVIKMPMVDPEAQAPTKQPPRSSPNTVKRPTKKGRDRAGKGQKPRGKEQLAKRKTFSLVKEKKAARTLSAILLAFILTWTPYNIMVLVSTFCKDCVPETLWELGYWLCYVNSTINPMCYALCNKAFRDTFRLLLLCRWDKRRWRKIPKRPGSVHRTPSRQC
Assay: Positive allosteric modulation at human muscarinic M1 receptor expressing CHO cells assessed as potentiation of acetylcholine-induced calcium mobilization by FLIPR assay
Format: functional, cell-based
parameter_measured: IP (µM)

# example entries with known answers
{"compound": "O=C(O)c1cn(Cc2ccc3ccccc3c2)c2ccccc2c1=O", "study_target": "Muscarinic acetylcholine receptor M1 (Homo sapiens) (UniProt P11229)", "units": "µM", "IP": 0.08}
{"compound": "O=C(O)c1cc(CN2CCc3ncncc3C2)c2ccccn2c1=O", "study_target": "Muscarinic acetylcholine receptor M1 (Homo sapiens) (UniProt P11229)", "units": "µM", "IP": 1.8}
{"compound": "N#Cc1ccc(C2CCN(Cc3cc(C(=O)O)c(=O)n4ccccc34)CC2)cc1", "study_target": "Muscarinic acetylcholine receptor M1 (Homo sapiens) (UniProt P11229)", "units": "µM", "IP": 1.3}

I = O=C(O)c1cc(CN2CCc3cc(-c4ccncc4)ccc3C2)c2ccccn2c1=O
II = Cc1ccc(C2CCN(Cc3cc(C(=O)O)c(=O)n4ccccc34)CC2)cc1
IN: # return whichever of I and II has the smaller IP Indicate your choice by writing its label.
OUT: I
(I: 0.39 µM, II: 1.7 µM)

a = O=C(O)c1cc(CN2CCC(c3ccc(C(F)(F)F)cc3)CC2)c2ccccn2c1=O
b = O=C(O)c1cc(CN2CCC(c3ccncn3)CC2)c2ccccn2c1=O
c = O=C(O)c1cc(CN2CCC(c3ccccc3F)CC2)c2ccccn2c1=O
d = O=C(O)c1cc(CN2CCc3ccccc3C2c2ccncc2)c2ccccn2c1=O (stereo unspecified)
IN: Please produce an ascending ranking of these compounds based on IP. Your reply should list the labels following the order given in the request.
OUT: d, a, c, b

P = CCOC(=O)C1c2ccccc2CCN1Cc1cc(C(=O)O)c(=O)n2ccccc12 (stereo unspecified)
Q = O=C(O)c1cc(CN2CCC(c3cccc(Cl)c3)CC2)c2ccccn2c1=O
R = O=C(O)c1cc(CN2CCC(c3ccccc3)CC2)c2ccccn2c1=O
S = COc1ccc(C2CCN(Cc3cc(C(=O)O)c(=O)n4ccccc34)CC2)cc1
IN: Please put the entries in order of rising IP. # respond with the labels, arranged in the requested order
OUT: P, Q, R, S
(P: 0.34 µM, Q: 0.91 µM, R: 1.3 µM, S: 4.3 µM)
